# Test system: DIV14
# EXPERIMENT: qHTS profiling for inhibitors of Plasmodium falciparum proliferation (AID 504749); also: nearly all actives have a fitted effect of over 60% in size
# CONDITION NOTES: P. falciparum in erythrocytes, SYBR Green DNA, 72 h; series mostly up to 28.7 µM
Inconclusive results are not listed. Calls of active or inactive are those of the source. Calls follow the shape of the dose curve; as a rule, active = well fitted inhibition curve with a large enough effect; inconclusive = small, poorly fitted or top-dose-only effect; inactive = flat fitted curve, though single readings scatter.
Just give me one of these, please: 1 (active), -1 (inactive)

These recorded examples may help you get a feel for the data.
Fill in: this test's call for CC(Cc1ccccc1)N(C)C (stereo unspecified) is ___ -1

Fill in: this test's call for CCC/C=C/C=C/C(=O)OC1/C(=C/C(=O)OC)CC2CC(C(C)O)OC(=O)CC(O)CC3CC(OC(C)=O)C(C)(C)C(O)(CC4C/C(=C/C(=O)OC)CC(/C=C\C(C)(C)C1(O)O2)O4)O3 (stereo unspecified) is ___ 1

Fill in: this test's call for CCC(=O)OC1(c2ccccc2)CCN(C)CC1C (stereo unspecified) is ___ -1

Fill in: this test's call for CCCCCCC(=O)O[C@H]1CC[C@H]2[C@@H]3CCC4CC(=O)C=C(C)[C@]4(C)[C@H]3CC[C@]12C (stereo partly specified) is ___ -1

Fill in: this test's call for C[C@]12C=CC(=O)C=C1CC[C@@H]1C2CC[C@]2(C)OC(=O)CCC12 (stereo partly specified) is ___ -1

Now let's try a different one.
Fill in: this test's call for CC(=O)Oc1ccc2c3c1OC1[C@@H](OC(C)=O)C=C[C@H]4[C@H](C2)N(C)CC[C@]314 (stereo partly specified) is ___ -1

---

# TARGET OF ASSAY: Cytochrome P450 2C19 (Homo sapiens) (UniProt P33261)
# Sequence (P33261 whole entry, looked up): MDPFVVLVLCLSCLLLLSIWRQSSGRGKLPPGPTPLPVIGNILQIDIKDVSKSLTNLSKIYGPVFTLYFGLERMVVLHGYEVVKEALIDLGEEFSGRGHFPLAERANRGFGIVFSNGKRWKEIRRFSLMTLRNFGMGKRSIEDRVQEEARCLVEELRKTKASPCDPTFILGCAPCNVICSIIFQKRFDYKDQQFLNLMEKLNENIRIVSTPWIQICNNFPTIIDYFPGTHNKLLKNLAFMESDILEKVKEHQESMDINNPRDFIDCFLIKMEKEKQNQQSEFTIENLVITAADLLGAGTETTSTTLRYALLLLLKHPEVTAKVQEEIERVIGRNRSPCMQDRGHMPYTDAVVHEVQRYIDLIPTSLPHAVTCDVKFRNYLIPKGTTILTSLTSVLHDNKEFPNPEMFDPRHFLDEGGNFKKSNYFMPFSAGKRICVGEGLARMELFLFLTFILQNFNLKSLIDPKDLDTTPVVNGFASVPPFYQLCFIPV
# EXPERIMENT: qHTS Assay for Inhibitors and Substrates of Cytochrome P450 2C19 (AID 899); also: nearly all actives have a fitted effect of over 60% in size
# CONDITION NOTES: recombinant CYP2C19, luciferin-H EGE luminescence; series mostly up to 57.1 µM
# Description: NIH Molecular Libraries Screening Centers Network [MLSCN] NIH Chemical Genomics Center [NCGC] The P450 gene superfamily is involved in the metabolism and clearance of xenobiotics. […] The luciferin is then measured by luminescence after the addition of a luciferase detection reagent. […] Inhibitors and some substrates limit the production of luciferin, and decrease measured luminescence. […]
Results filed as inconclusive are left out. Active and inactive are the calls of the source. Calls follow the shape of the dose curve; as a rule, active = well fitted inhibition curve with a large enough effect; inconclusive = small, poorly fitted or top-dose-only effect; inactive = no such curve, though single readings can be large or run the other way.
Just give me one of these, please: active, inactive

These recorded examples may help you get a feel for the data.
Fill in: this test's call for `COc1cc2c(cc1OC)[C@]13CCN4CC5=CCO[C@@H]6CC(=O)N2[C@@H]1[C@H]6[C@@H]5C[C@H]43` is ___ inactive

Fill in: this test's call for `COc1cc2c(cc1O)CCN[C@H]2C` is ___ inactive

Fill in: this test's call for `C[C@@]12CC[C@@H]3[C@@H](CC[C@H]4C[C@@H](O)CC[C@]43C)[C@H]1CC[C@@H]2c1cc(C(F)(F)F)n[nH]1` is ___ active

New cases:
Fill in: this test's call for `CCN1C[C@@]2(C)CC[C@H](O)[C@@]34[C@@H]5C[C@H]6[C@H](O)[C@@H]5[C@](O)(C[C@@H]6OC)[C@H](C[C@@H]23)[C@H]14` is ___ inactive

---

# EXPERIMENT: NFAT Signaling Pathway (AID 444);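 also: carbachol stimulus at about its EC50 of 1 µM final; % is scaled to controls: 0 for no effect and ±100 for the full control effect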
# CONDITION NOTES: Jurkat NFAT-bla M1, carbachol, beta-lactamase ratio, 5 h; at 17.2 µM (top of the series) unless noted
Results filed as inconclusive are left out. Activity calls are given as the source filed them. Calls come from the whole dose curve; as a rule, active = well fitted curve in either direction with a large enough effect (not every such curve was filed as active); inconclusive = small, poorly fitted or top-dose-only effect, or another doubt; inactive = flat fitted curve, though single readings scatter.
The following molecules are listed with their measured activity change, negative = inhibition values.

Solved cases below.
Please report the recorded activity change, negative = inhibition for `CC(=O)CC(C)(C)n1c[n+](C)nn1` . -3.99% (inactive)

Please report the recorded activity change, negative = inhibition for `C=CCOC(=O)C1=C(C)OC(N)=C(C#N)[C@@]12C(=O)N(CC(N)=O)c1ccccc12` . -10.1% (inactive)

Please report the recorded activity change, negative = inhibition for `N[C@@H]1CCc2cc(O)c(O)cc2C1` . -2.09% [at 38 µM] (inactive)

New cases:
Please report the recorded activity change, negative = inhibition for `C=CCC1(CN2CCCCCC2=O)C(=O)NC(=O)NC1=O` . 2.02% (inactive)

Please report the recorded activity change, negative = inhibition for `CCN(CC)c1ccc(N=Cc2c(O)n(-c3ccccc3C)c(=O)[nH]c2=O)cc1` . -29.8% (inactive)

Please report the recorded activity change, negative = inhibition for `O=c1[nH]c(=O)n(C2CCCCC2)c(O)c1C=NCCCn1ccnc1` . -4.42% (inactive)

Values compiled from PubChem BioAssay (NCATS).
